# ASSAY TARGET: Botulinum neurotoxin type A (Clostridium botulinum) (UniProt P0DPI0)
# Sequence (P0DPI0 whole entry, looked up): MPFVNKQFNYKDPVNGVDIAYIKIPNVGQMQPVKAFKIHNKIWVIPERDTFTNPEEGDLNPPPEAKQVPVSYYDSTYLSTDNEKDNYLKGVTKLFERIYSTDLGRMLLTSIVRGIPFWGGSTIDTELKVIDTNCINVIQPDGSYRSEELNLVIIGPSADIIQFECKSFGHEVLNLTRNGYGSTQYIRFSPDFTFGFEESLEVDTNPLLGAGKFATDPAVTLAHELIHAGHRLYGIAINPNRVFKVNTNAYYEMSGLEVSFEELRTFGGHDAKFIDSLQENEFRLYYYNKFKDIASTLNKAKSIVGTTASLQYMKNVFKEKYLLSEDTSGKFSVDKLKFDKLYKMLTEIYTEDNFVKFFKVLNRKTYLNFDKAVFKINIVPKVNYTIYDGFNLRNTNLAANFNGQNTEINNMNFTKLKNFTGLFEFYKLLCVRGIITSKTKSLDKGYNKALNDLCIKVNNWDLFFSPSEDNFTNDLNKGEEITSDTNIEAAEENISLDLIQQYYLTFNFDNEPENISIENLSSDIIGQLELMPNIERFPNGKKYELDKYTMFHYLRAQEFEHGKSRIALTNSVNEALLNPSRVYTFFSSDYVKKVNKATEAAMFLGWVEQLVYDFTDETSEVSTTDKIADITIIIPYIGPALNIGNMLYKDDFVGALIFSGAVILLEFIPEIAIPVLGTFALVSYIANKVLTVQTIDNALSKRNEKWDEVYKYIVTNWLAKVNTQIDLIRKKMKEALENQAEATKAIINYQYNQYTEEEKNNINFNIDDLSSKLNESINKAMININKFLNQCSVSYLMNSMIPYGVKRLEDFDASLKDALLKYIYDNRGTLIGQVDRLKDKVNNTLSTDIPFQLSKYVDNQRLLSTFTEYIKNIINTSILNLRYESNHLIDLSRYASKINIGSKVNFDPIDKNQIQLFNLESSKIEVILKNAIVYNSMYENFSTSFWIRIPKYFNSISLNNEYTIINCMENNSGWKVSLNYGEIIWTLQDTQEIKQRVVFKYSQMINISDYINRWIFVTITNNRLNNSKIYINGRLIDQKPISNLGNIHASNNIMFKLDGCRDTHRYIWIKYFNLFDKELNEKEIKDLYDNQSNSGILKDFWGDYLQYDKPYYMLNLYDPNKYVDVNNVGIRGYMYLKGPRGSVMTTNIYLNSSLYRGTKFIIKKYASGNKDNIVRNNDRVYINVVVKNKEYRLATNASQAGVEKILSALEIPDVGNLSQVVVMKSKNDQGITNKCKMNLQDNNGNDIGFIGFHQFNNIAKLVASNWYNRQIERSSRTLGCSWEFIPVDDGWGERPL
# TEST NAME: BoNT/A light chain protease inhibitors, biochemical, multiplex microsphere flow cytometry, validation set (AID 588460)
# TEST CONTEXT: at 10 µM, active compounds read high
QUANTITY MEASURED: inhibition (%)
One number for each entry, in %.

| COMPOUND | ASSAY TARGET | SCALE UNIT | RECORDED VALUE |
| --- | --- | --- | --- |
| Cc1ccc2[nH]c3c(c2c1)CCNC3=O | Botulinum neurotoxin type A (Clostridium botulinum) (UniProt P0DPI0) | % | -0.5 |
| O=C(O)CCCc1ccc(N(CCCl)CCCl)cc1 | Botulinum neurotoxin type A (Clostridium botulinum) (UniProt P0DPI0) | % | -2.1 |
| COc1ccc(-c2nc3ccccc3c(=O)o2)cc1 | Botulinum neurotoxin type A (Clostridium botulinum) (UniProt P0DPI0) | % | 1.3 |
| Cc1ccc2c(c1)C(O)(CC(=O)/C=C/C=C/c1ccccc1)C(=O)N2 (stereo unspecified) | Botulinum neurotoxin type A (Clostridium botulinum) (UniProt P0DPI0) | % | -0.9 |
| Cc1cc(C(=O)Nc2ccccc2C(=O)N2CCCCC2)ccc1[N+](=O)[O-] | Botulinum neurotoxin type A (Clostridium botulinum) (UniProt P0DPI0) | % | 2.4 |

Would you kindly look at the next entry?
The reported value for NS(=O)(=O)c1ccc(CCNC(=O)C2CCCN2C(=O)OCc2ccccc2)cc1 (stereo unspecified) in terms of inhibition is -0.7
